# credit: ChEMBL document CHEMBL1129307

# target-or-test-system: D(3) dopamine receptor (Homo sapiens)
# Sequence (P35462 whole entry): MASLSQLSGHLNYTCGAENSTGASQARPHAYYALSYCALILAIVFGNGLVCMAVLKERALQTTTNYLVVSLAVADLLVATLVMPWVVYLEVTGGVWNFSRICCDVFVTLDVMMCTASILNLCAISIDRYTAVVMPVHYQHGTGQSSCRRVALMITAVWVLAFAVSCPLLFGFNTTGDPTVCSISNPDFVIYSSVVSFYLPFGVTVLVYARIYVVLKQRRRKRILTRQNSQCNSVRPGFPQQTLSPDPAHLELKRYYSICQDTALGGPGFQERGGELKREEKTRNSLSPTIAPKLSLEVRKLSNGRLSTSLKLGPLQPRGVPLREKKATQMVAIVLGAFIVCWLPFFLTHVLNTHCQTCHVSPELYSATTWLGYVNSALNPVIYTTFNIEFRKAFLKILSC
value-type: Ki (nM)

INSERT INTO measurements (smiles_record, result) VALUES
  ('Clc1ccc(CN2CCC(c3cc(-c4ccc(Cl)cc4)no3)CC2)cc1', 81),
  ('Clc1ccc(CN2CCC(c3cc(-c4ccc(Cl)cc4)on3)CC2)cc1', 430);

A = Cc1c(C2CCN(CCc3ccccc3)CC2)n[nH]c1-c1ccc(Cl)cc1
B = Clc1ccc(CN2CCC(c3cc(-c4ccc(Cl)cc4)[nH]n3)CC2)cc1
C = Cc1c(-c2ccc(Cl)cc2)noc1C1CCN(CCc2ccccc2)CC1
Exercise: Please produce an ascending ranking of these molecules based on Ki. Would you mind listing the labels in the order asked for?
Solution: C, B, A
(C: 480 nM, B: 820 nM, A: 1200 nM)

* * *

Please consider the recorded Ki for D(4) dopamine receptor (Homo sapiens, UniProt P21917) in what follows.
value-type: Ki (nM)

Look over these answered cases.
INSERT INTO results (smiles_record, value_type, unit, result) VALUES
  ('Clc1ccc(CN2CCC(c3cc(-c4ccc(Cl)cc4)on3)CC2)cc1', 'Ki', 'nM', 44),
  ('Clc1ccc(-c2cc(C3CCN(CCc4ccccc4)CC3)[nH]n2)cc1', 'Ki', 'nM', 5.5);

A = Clc1ccc(CN2CCC(c3cc(-c4ccc(Cl)cc4)[nH]n3)CC2)cc1
B = Clc1ccc(CN2CCC(c3cc(-c4ccc(Cl)cc4)no3)CC2)cc1
C = Cc1c(C2CCN(CCc3ccccc3)CC2)n[nH]c1-c1ccc(Cl)cc1
Exercise: Please produce an ascending ranking of these compounds based on Ki. Would you mind listing the labels in the order asked for?
Solution: C, B, A
